System: 168753-222-R-J1-PDC complex spheroid viability
Test: Anticancer human tumor 168753-222-R-J1-PDC patient-derived bladder carcinoma cell line growth inhibition [CLK]
Settings: second compound 0.1 µM; first compound 1 µM; stronger effect = lower value
readout label: viability, T/C (%)
Answers are plain numbers, in %.

Below, each entry is followed by its recorded viability, T/C result.
compound | tested target | viability, T/C / %
CCCS(=O)(=O)Nc1ccc(F)c(C(=O)c2c[nH]c3ncc(-c4ccc(Cl)cc4)cc23)c1F + CN1CCN(c2cc(C(=O)Nc3cc4cc(-c5cnn(C)c5)ccc4cn3)ccn2)CC1 | 168753-222-R-J1-PDC complex spheroid viability | 88.5
CC1(C)CCC(CN2CCN(c3ccc(C(=O)NS(=O)(=O)c4ccc(NCC5CCOCC5)c([N+](=O)[O-])c4)c(Oc4cnc5[nH]ccc5c4)c3)CC2)=C(c2ccc(Cl)cc2)C1 + CNC(=O)c1ccc(Nc2nc(OC3CCCC3)c3c(-c4ccc5nc(C)oc5c4)c[nH]c3n2)c(OC)c1 | 168753-222-R-J1-PDC complex spheroid viability | 95.7
CC(Nc1ccc2c(c1)OCCn1cc(N3C(=O)OCC3C(F)F)nc1-2)C(N)=O (centres undefined) + CN1CCN(c2cc(C(=O)Nc3cc4cc(-c5cnn(C)c5)ccc4cn3)ccn2)CC1 | 168753-222-R-J1-PDC complex spheroid viability | 8.91

In one line, give reported viability, T/C of the entry O=c1[nH]cc(F)c(=O)[nH]1 + CNC(=O)c1ccc(Nc2nc(OC3CCCC3)c3c(-c4ccc5nc(C)oc5c4)c[nH]c3n2)c(OC)c1 .
115

###

Please go through the items and note down their viability, T/C.
System: 168753-222-R-J1-PDC complex spheroid viability
Experiment: Anticancer human tumor 168753-222-R-J1-PDC cell line growth inhibition [CLK]
Conditions: second compound 0.1 µM; first compound 0.01 µM; stronger effect = lower value
Give bare numbers, in %.

Below are 3 compounds. Give each one its viability, T/C.
1. CCc1c2c(nc3ccc(O)cc13)-c1cc3c(c(=O)n1C2)COC(=O)[C@]3(O)CC + CN1CCN(c2cc(C(=O)Nc3cc4cc(-c5cnn(C)c5)ccc4cn3)ccn2)CC1
2. Cn1ncnc1[C@H]1c2n[nH]c(=O)c3cc(F)cc(c23)N[C@@H]1c1ccc(F)cc1 + CN1CCN(c2cc(C(=O)Nc3cc4cc(-c5cnn(C)c5)ccc4cn3)ccn2)CC1
3. COc1c(OCCCN2CCOCC2)ccc2c3n(c(=NC(=O)c4cnc(N)nc4)nc12)CCN3 + CNC(=O)c1ccc(Nc2nc(OC3CCCC3)c3c(-c4ccc5nc(C)oc5c4)c[nH]c3n2)c(OC)c1

1: 36.1; 2: 18.7; 3: 60.8

Need viability, T/C for each of these compounds.
1. CCN1CCN(Cc2ccc(Nc3ncc(F)c(-c4cc(F)c5nc(C)n(C(C)C)c5c4)n3)nc2)CC1 + CN1CCN(c2cc(C(=O)Nc3cc4cc(-c5cnn(C)c5)ccc4cn3)ccn2)CC1
2. CCN1CCN(Cc2ccc(Nc3ncc(F)c(-c4cc(F)c5nc(C)n(C(C)C)c5c4)n3)nc2)CC1 + CNC(=O)c1ccc(Nc2nc(OC3CCCC3)c3c(-c4ccc5nc(C)oc5c4)c[nH]c3n2)c(OC)c1

1. 38.7
2. 88.5

###

For each entry below, report its viability, T/C value.
Tested on: 168753-222-R-J1-PDC complex spheroid viability
Experiment: Anticancer human tumor 168753-222-R-J1-PDC cell line growth inhibition [CLK];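 note: luminescence signal used as surrogate for viable cell amount; viability measured after seven days of drug exposure; 100% = DMSO vehicle control wells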
Conditions: second compound 10 µM; first compound 3.16 µM; stronger effect = lower value
One number for each entry, in %.

Consider the following illustrative entries.
compound | viability, T/C, %
CCCS(=O)(=O)Nc1ccc(F)c(C(=O)c2c[nH]c3ncc(-c4ccc(Cl)cc4)cc23)c1F + CNC(=O)c1ccc(Nc2nc(OC3CCCC3)c3c(-c4ccc5nc(C)oc5c4)c[nH]c3n2)c(OC)c1 | 27.8
CC1COCCN1c1cc(C2(S(C)(=N)=O)CC2)nc(-c2ccnc3[nH]ccc23)n1 (stereo not drawn) + CN1CCN(c2cc(C(=O)Nc3cc4cc(-c5cnn(C)c5)ccc4cn3)ccn2)CC1 | 0.56

Fetch value of viability, T/C on 168753-222-R-J1-PDC complex spheroid viability for C#Cc1c(F)ccc2cc(O)cc(-c3ncc4c(N5CC6CCC(C5)N6)nc(OCC56CCCN5CC(F)C6)nc4c3F)c12 (stereo not drawn) + CNC(=O)c1ccc(Nc2nc(OC3CCCC3)c3c(-c4ccc5nc(C)oc5c4)c[nH]c3n2)c(OC)c1 .
11.7

###

Tested on: 168753-222-R-J1-PDC complex spheroid viability
Assay: Anticancer human tumor 168753-222-R-J1-PDC cell line growth inhibition [CLK];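 note: luminescence signal used as surrogate for viable cell amount; viability measured after seven days of drug exposure; 100% = DMSO vehicle control wells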
Settings: second compound 0.1 µM; first compound 0.0316 µM; stronger effect = lower value
readout label: viability, T/C (%)
One number for each entry, in %.

compound | quantitative result
COC1C=CCC(C)C(C)S(=O)(=O)NC(=O)c2ccc3c(c2)N(CC2CCC21)CC1(CCCc2cc(Cl)ccc21)CO3 (stereo not given) + CNC(=O)c1ccc(Nc2nc(OC3CCCC3)c3c(-c4ccc5nc(C)oc5c4)c[nH]c3n2)c(OC)c1 | 102
O=c1[nH]cc(F)c(=O)[nH]1 + CNC(=O)c1ccc(Nc2nc(OC3CCCC3)c3c(-c4ccc5nc(C)oc5c4)c[nH]c3n2)c(OC)c1 | 92.3
CCN1CCN(Cc2ccc(Nc3ncc(F)c(-c4cc(F)c5nc(C)n(C(C)C)c5c4)n3)nc2)CC1 + CN1CCN(c2cc(C(=O)Nc3cc4cc(-c5cnn(C)c5)ccc4cn3)ccn2)CC1 | 20.5
Cn1ncnc1[C@H]1c2n[nH]c(=O)c3cc(F)cc(c23)N[C@@H]1c1ccc(F)cc1 + CN1CCN(c2cc(C(=O)Nc3cc4cc(-c5cnn(C)c5)ccc4cn3)ccn2)CC1 | 25.8
Nc1ccccc1NC(=O)c1ccc(CNC(=O)OCc2cccnc2)cc1 + CNC(=O)c1ccc(Nc2nc(OC3CCCC3)c3c(-c4ccc5nc(C)oc5c4)c[nH]c3n2)c(OC)c1 | 98.8
CC1(C)CCC(CN2CCN(c3ccc(C(=O)NS(=O)(=O)c4ccc(NCC5CCOCC5)c([N+](=O)[O-])c4)c(Oc4cnc5[nH]ccc5c4)c3)CC2)=C(c2ccc(Cl)cc2)C1 + CNC(=O)c1ccc(Nc2nc(OC3CCCC3)c3c(-c4ccc5nc(C)oc5c4)c[nH]c3n2)c(OC)c1 | 99.7

Provide each entry's viability, T/C from the list below.
1. COC1C=CCC(C)C(C)S(=O)(=O)NC(=O)c2ccc3c(c2)N(CC2CCC21)CC1(CCCc2cc(Cl)ccc21)CO3 (stereo not given) + CN1CCN(c2cc(C(=O)Nc3cc4cc(-c5cnn(C)c5)ccc4cn3)ccn2)CC1
2. COc1ccc([C@@H](O)c2cc(-c3ncnc4cc(N5CCOCC5)ccc34)c(F)cc2Cl)nn1 + CN1CCN(c2cc(C(=O)Nc3cc4cc(-c5cnn(C)c5)ccc4cn3)ccn2)CC1

[67.5, 63]

###

System: 168753-222-R-J1-PDC complex spheroid viability
Experiment: Anticancer human tumor 168753-222-R-J1-PDC cell line growth inhibition [CLK]; active = viability on the fitted dose curve at most 10% of control; inactive = the rest;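 note: luminescence signal used as surrogate for viable cell amount; viability measured after seven days of drug exposure; 100% = DMSO vehicle control wells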
Settings: second compound 0.316 µM; first compound 0.01 µM
Choose the fitting class; nothing outside active, inactive is accepted.

compound | cat
CCN1CCN(Cc2ccc(Nc3ncc(F)c(-c4cc(F)c5nc(C)n(C(C)C)c5c4)n3)nc2)CC1 + CNC(=O)c1ccc(Nc2nc(OC3CCCC3)c3c(-c4ccc5nc(C)oc5c4)c[nH]c3n2)c(OC)c1 | inactive
CCc1c2c(nc3ccc(O)cc13)-c1cc3c(c(=O)n1C2)COC(=O)[C@]3(O)CC + CNC(=O)c1ccc(Nc2nc(OC3CCCC3)c3c(-c4ccc5nc(C)oc5c4)c[nH]c3n2)c(OC)c1 | inactive

Now consider a different compound.
What is the recorded call for this compound in the test? COc1c(OCCCN2CCOCC2)ccc2c3n(c(=NC(=O)c4cnc(N)nc4)nc12)CCN3 + CN1CCN(c2cc(C(=O)Nc3cc4cc(-c5cnn(C)c5)ccc4cn3)ccn2)CC1
active

###

Tested on: 168753-222-R-J1-PDC complex spheroid viability
Experiment: Anticancer human tumor 168753-222-R-J1-PDC cell line growth inhibition [CLK];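 note: luminescence signal used as surrogate for viable cell amount; viability measured after seven days of drug exposure; 100% = DMSO vehicle control wells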
Details: second compound 0.0316 µM; first compound 0.316 µM; stronger effect = lower value
Kindly supply the reported viability, T/C values for the records listed here.
Numbers only, in %.

compound | viability, T/C, %
C=CC(=O)N1CCN(c2nc(=O)n(-c3c(C)ccnc3C(C)C)c3nc(-c4c(O)cccc4F)c(F)cc23)C(C)C1 (stereo not drawn) + CN1CCN(c2cc(C(=O)Nc3cc4cc(-c5cnn(C)c5)ccc4cn3)ccn2)CC1 | 111
COc1ccc([C@@H](O)c2cc(-c3ncnc4cc(N5CCOCC5)ccc34)c(F)cc2Cl)nn1 + CN1CCN(c2cc(C(=O)Nc3cc4cc(-c5cnn(C)c5)ccc4cn3)ccn2)CC1 | 55.6
CC(CO)NC(=O)c1cc(-c2ccc(Cl)cc2)nn(-c2cnn(C)c2)c1=O (stereo not drawn) + CN1CCN(c2cc(C(=O)Nc3cc4cc(-c5cnn(C)c5)ccc4cn3)ccn2)CC1 | 64
COc1cccc2c1C(=O)c1c(O)c3c(c(O)c1C2=O)CC(O)(C(=O)CO)CC3OC1CC(N)C(O)C(C)O1 (stereo not drawn) + CNC(=O)c1ccc(Nc2nc(OC3CCCC3)c3c(-c4ccc5nc(C)oc5c4)c[nH]c3n2)c(OC)c1 | 50
COC1C=CCC(C)C(C)S(=O)(=O)NC(=O)c2ccc3c(c2)N(CC2CCC21)CC1(CCCc2cc(Cl)ccc21)CO3 (stereo not drawn) + CN1CCN(c2cc(C(=O)Nc3cc4cc(-c5cnn(C)c5)ccc4cn3)ccn2)CC1 | 68.9

Give measured viability, T/C for every item shown.
1. COc1c(OCCCN2CCOCC2)ccc2c3n(c(=NC(=O)c4cnc(N)nc4)nc12)CCN3 + CN1CCN(c2cc(C(=O)Nc3cc4cc(-c5cnn(C)c5)ccc4cn3)ccn2)CC1
2. CC1(C)CCC(CN2CCN(c3ccc(C(=O)NS(=O)(=O)c4ccc(NCC5CCOCC5)c([N+](=O)[O-])c4)c(Oc4cnc5[nH]ccc5c4)c3)CC2)=C(c2ccc(Cl)cc2)C1 + CNC(=O)c1ccc(Nc2nc(OC3CCCC3)c3c(-c4ccc5nc(C)oc5c4)c[nH]c3n2)c(OC)c1
3. COc1ccc([C@@H](O)c2cc(-c3ncnc4cc(N5CCOCC5)ccc34)c(F)cc2Cl)nn1 + CNC(=O)c1ccc(Nc2nc(OC3CCCC3)c3c(-c4ccc5nc(C)oc5c4)c[nH]c3n2)c(OC)c1
4. CC(Nc1ccc2c(c1)OCCn1cc(N3C(=O)OCC3C(F)F)nc1-2)C(N)=O (stereo not drawn) + CN1CCN(c2cc(C(=O)Nc3cc4cc(-c5cnn(C)c5)ccc4cn3)ccn2)CC1
5. COC1C=CCC(C)C(C)S(=O)(=O)NC(=O)c2ccc3c(c2)N(CC2CCC21)CC1(CCCc2cc(Cl)ccc21)CO3 (stereo not drawn) + CNC(=O)c1ccc(Nc2nc(OC3CCCC3)c3c(-c4ccc5nc(C)oc5c4)c[nH]c3n2)c(OC)c1

1. 4.48
2. 104
3. 88.3
4. 15
5. 101

# return viability, T/C for each item in the list
1. C=CC(=O)N1CCN(c2nc(=O)n(-c3c(C)ccnc3C(C)C)c3nc(-c4c(O)cccc4F)c(F)cc23)C(C)C1 (stereo not drawn) + CNC(=O)c1ccc(Nc2nc(OC3CCCC3)c3c(-c4ccc5nc(C)oc5c4)c[nH]c3n2)c(OC)c1
2. O=C(c1cc(Cc2n[nH]c(=O)c3ccccc23)ccc1F)N1CCN(C(=O)C2CC2)CC1 + CNC(=O)c1ccc(Nc2nc(OC3CCCC3)c3c(-c4ccc5nc(C)oc5c4)c[nH]c3n2)c(OC)c1

1. 111
2. 103

Read the entry C#Cc1c(F)ccc2cc(O)cc(-c3ncc4c(N5CC6CCC(C5)N6)nc(OCC56CCCN5CC(F)C6)nc4c3F)c12 (stereo not drawn) + CN1CCN(c2cc(C(=O)Nc3cc4cc(-c5cnn(C)c5)ccc4cn3)ccn2)CC1 and write its reported viability, T/C.
101
